This collection of values is drawn from ChEMBL document CHEMBL1124186.

- Tested on: Streptococcus pyogenes
- test details: In vitro antimicrobial activity against Streptococcus pyogenes C203
- Assay type: functional
# Lookup of reported MIC keyed by entry

| input smiles | MIC / µg/mL |
| --- | --- |
| CC[C@H]1OC(=O)C[C@@H](O)[C@H](C)[C@@H](O[C@@H]2O[C@H](C)[C@@H](O)[C@H](N(C)C)[C@H]2O)[C@@H](CCI)C[C@@H](C)C(=O)/C=C/C(C)=C/[C@@H]1CO[C@@H]1O[C@H](C)[C@@H](O)[C@@H](O)[C@H]1OC | 0.5 |
| CC[C@H]1OC(=O)C[C@@H](O)[C@H](C)[C@@H](O[C@@H]2O[C@H](C)[C@@H](O)[C@H](N(C)C)[C@H]2O)[C@@H](CCOc2ccccc2)C[C@@H](C)C(=O)/C=C/C(C)=C/[C@@H]1CO[C@@H]1O[C@H](C)[C@@H](O)[C@@H](O)[C@H]1OC | 0.25 |
| CC[C@H]1OC(=O)C[C@@H](O)[C@H](C)[C@@H](O[C@@H]2O[C@H](C)[C@@H](O)[C@H](N(C)C)[C@H]2O)[C@@H](CCNCCc2ccccc2)C[C@@H](C)C(=O)/C=C/C(C)=C/[C@@H]1CO[C@@H]1O[C@H](C)[C@@H](O)[C@@H](OC)[C@H]1OC | 0.25 |
| CC[C@H]1C[C@@H](C)C(=O)/C=C/C(C)=C/[C@H](C)[C@@H](CC)OC(=O)C[C@@H](O)[C@H](C)[C@H]1O[C@@H]1O[C@H](C)[C@@H](O[C@H]2C[C@@](C)(O)[C@@H](O)[C@H](C)O2)[C@H](N(C)C)[C@H]1O | 128 |
| CC[C@H]1OC(=O)C[C@@H](O)[C@H](C)[C@@H](O[C@@H]2O[C@H](C)[C@@H](O[C@H]3C[C@@](C)(O)[C@@H](O)[C@H](C)O3)[C@H](N(C)C)[C@H]2O)[C@@H](CCN2C(=O)c3ccccc3C2=O)C[C@@H](C)C(=O)/C=C/C(C)=C/[C@@H]1C | 64 |
| CC[C@H]1OC(=O)C[C@@H](O)[C@H](C)[C@@H](O[C@@H]2O[C@H](C)[C@@H](O[C@H]3C[C@@](C)(O)[C@@H](O)[C@H](C)O3)[C@H](N(C)C)[C@H]2O)[C@@H](CCOc2ccc(-c3ccccc3)cc2)C[C@@H](C)C(=O)/C=C/C(C)=C/[C@@H]1CO[C@@H]1O[C@H](C)[C@@H](O)[C@@H](OC)[C@H]1OC | 2 |
| CC[C@H]1OC(=O)C[C@@H](O)[C@H](C)[C@@H](O[C@@H]2O[C@H](C)[C@@H](O)[C@H](N(C)C)[C@H]2O)[C@@H](CCSc2nnnn2C)C[C@@H](C)C(=O)/C=C/C(C)=C/[C@@H]1CO[C@@H]1O[C@H](C)[C@@H](O)[C@@H](OC)[C@H]1OC | 0.25 |
| CC[C@H]1OC(=O)C[C@@H](O)[C@H](C)[C@@H](O[C@@H]2O[C@H](C)[C@@H](O[C@H]3C[C@@](C)(O)[C@@H](O)[C@H](C)O3)[C@H](N(C)C)[C@H]2O)[C@@H](CCOC(C(F)(F)F)C(F)(F)F)C[C@@H](C)C(=O)/C=C/C(C)=C/[C@@H]1CO[C@@H]1O[C@H](C)[C@@H](O)[C@@H](OC)[C@H]1OC | 8 |
